# tested.system: human recombinant mGluR5 receptor (Homo sapiens)
# Construct: expressed in transfected cells; expression induced with doxycycline
# assay: mGluR5 in vitro functional assay (aequorin cell line, inhibition of glutamate EC80 response)
# Type: cell-based
# cond: Table 1; aequorin cell line expressing human mGluR5, reference agonist glutamate at EC80; obtained in duplicate; read-out: IC50
pIC50: −log10 of the molar value.
assay.readout: pIC50

pIC50 reading for "N#Cc1nccnc1N1CCc2oc(-c3ccccc3)nc2C1" : > 5.00

pIC50 reading for "N#Cc1cccc(-c2nc3c(o2)CN(c2ccccn2)C3)c1" : < 5.00

pIC50 reading for CC1CN(c2cc(F)cc(C#N)c2)Cc2oc(-c3ccccn3)nc21 (racemic) : > 6.00

pIC50 reading for "N#Cc1ccnc(N2CCc3oc(-c4ccccn4)nc3C2)c1" : > 6.00

pIC50 reading for "N#Cc1cccc(N2CCCc3nc(-c4ccc(F)cn4)oc3C2)c1" : > 6.00

***
pIC50 reading for "N#Cc1cc(F)cc(N2CCCc3nc(-c4ccccn4)oc3C2)c1" : > 6.00

----------
Overview of recorded IC50 for various compounds
# tested.system: human recombinant mGluR5 receptor (Homo sapiens, UniProt P41594)
# Construct: expressed in transfected cells; expression induced with doxycycline
# Sequence (P41594 21-1212): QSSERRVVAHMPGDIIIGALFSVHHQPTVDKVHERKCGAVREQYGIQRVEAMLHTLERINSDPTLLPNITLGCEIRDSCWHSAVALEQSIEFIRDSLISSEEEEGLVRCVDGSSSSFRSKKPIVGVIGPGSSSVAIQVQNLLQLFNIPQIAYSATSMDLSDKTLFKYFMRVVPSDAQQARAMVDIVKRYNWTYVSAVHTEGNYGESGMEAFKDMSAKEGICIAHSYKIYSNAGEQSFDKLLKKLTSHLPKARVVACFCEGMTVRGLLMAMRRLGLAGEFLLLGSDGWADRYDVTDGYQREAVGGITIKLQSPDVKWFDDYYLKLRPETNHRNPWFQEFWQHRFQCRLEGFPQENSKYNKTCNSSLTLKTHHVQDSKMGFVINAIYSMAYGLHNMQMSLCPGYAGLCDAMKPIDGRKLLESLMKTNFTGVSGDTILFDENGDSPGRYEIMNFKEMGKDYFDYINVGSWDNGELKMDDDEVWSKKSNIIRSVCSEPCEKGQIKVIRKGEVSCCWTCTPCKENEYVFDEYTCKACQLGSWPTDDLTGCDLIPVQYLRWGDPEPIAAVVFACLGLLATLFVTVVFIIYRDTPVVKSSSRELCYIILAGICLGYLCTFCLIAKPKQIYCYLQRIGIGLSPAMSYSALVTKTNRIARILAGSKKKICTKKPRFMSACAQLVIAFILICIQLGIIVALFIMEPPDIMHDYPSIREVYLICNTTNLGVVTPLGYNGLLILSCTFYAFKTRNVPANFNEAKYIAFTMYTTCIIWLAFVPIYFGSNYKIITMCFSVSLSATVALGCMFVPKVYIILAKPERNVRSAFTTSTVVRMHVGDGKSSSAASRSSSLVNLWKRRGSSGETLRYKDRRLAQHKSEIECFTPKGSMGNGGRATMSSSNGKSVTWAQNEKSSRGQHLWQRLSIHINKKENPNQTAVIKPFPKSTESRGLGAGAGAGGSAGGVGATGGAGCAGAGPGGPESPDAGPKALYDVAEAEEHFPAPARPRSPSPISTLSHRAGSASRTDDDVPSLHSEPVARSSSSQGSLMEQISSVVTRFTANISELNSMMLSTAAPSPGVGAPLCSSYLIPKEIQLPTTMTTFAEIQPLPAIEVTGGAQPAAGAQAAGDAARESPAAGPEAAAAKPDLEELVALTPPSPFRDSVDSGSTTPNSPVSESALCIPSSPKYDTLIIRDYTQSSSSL
# assay: mGluR5 in vitro functional assay (aequorin cell line, inhibition of glutamate EC80 response)
# Format: cell-based
# cond: Table 2; aequorin cell line expressing human mGluR5, reference agonist glutamate at EC80; obtained in duplicate; read-out: IC50

Before answering, review these 3 worked examples.
Tested system human recombinant mGluR5 receptor (Homo sapiens, UniProt P41594); IC50 recorded for N#Cc1cc(F)cc(N2CCc3oc(-c4cncnc4)nc3C2)c1 [Compound 160] was > 10 µM

Tested system human recombinant mGluR5 receptor (Homo sapiens, UniProt P41594); IC50 recorded for N#Cc1cc(Cl)cc(N2CCc3oc(-c4ccccn4)nc3C2)c1 [Compound 186] was < 1 µM

Tested system human recombinant mGluR5 receptor (Homo sapiens, UniProt P41594); IC50 recorded for Fc1ccc(N2CCCc3oc(-c4ncccn4)nc3C2)cc1Cl [Compound 204] was > 10 µM

Alright, here's another compound for you.
Tested system human recombinant mGluR5 receptor (Homo sapiens, UniProt P41594); IC50 recorded for Fc1ccc(N2CCCc3oc(-c4ccccn4)nc3C2)cc1F [Compound 197] was < 1 µM

----------
# tested.system: human recombinant mGluR5 receptor (Homo sapiens, UniProt P41594)
# Construct: expressed in transfected cells; expression induced with doxycycline
# assay: mGluR5 in vitro functional assay (aequorin cell line, inhibition of glutamate EC80 response)
# Format: cell-based
# cond: Table 1; aequorin cell line expressing human mGluR5, reference agonist glutamate at EC80; obtained in duplicate; read-out: IC50
Overview of recorded IC50 for various compounds

Before answering, review these 5 worked examples.
IC50 reading for c1ccc(-c2nc3c(o2)CCN(c2ccccn2)C3)nc1 [Compound 27] : < 1000 nM

IC50 reading for N#Cc1cccnc1N1CCc2oc(-c3ccc(C(F)(F)F)cc3)nc2C1 [Compound 44] : > 10000 nM

IC50 reading for N#Cc1cccnc1N1CCc2oc(-c3ccccc3)nc2C1 [Compound 37] : < 10000 nM

IC50 reading for Clc1cccc(-c2nc3c(o2)CCN(c2cccnc2)C3)c1 [Compound 51] : < 1000 nM

IC50 reading for COc1cc(C#N)cc(N2CCCc3nc(-c4ccccn4)oc3C2)c1 [Compound 91] : < 1000 nM

***
IC50 reading for Clc1cccc(-c2cn3c(n2)CN(c2ccccn2)CC3)c1 [Compound 107] : < 10000 nM

IC50 reading for Cc1cccc(-c2nc3c(o2)CCN(c2ccccn2)C3)c1 [Compound 60] : < 1000 nM

IC50 reading for N#Cc1cc(F)cc(N2CCc3nc(-c4ccccc4)oc3C2)c1 [Compound 21] : < 1000 nM

IC50 reading for Fc1cncc(N2CCCc3oc(-c4ccccn4)nc3C2)c1 [Compound 104] : < 1000 nM

IC50 reading for N#Cc1cccc(N2CCc3nc(-c4cccnc4)oc3C2)c1 [Compound 77] : > 10000 nM

IC50 reading for N#Cc1cccc(N2CCCc3oc(-c4ccccn4)nc3C2)c1 [Compound 99] : < 1000 nM

IC50 reading for Cc1cccc(-c2nc3c(o2)CN(c2ncccc2C#N)CC3)c1 [Compound 59] : < 1000 nM

IC50 reading for N#Cc1cccc(N2CCCc3nc(-c4ccccn4)oc3C2)c1 [Compound 93] : < 1000 nM

IC50 reading for CC1CN(c2cc(F)cc(C#N)c2)Cc2nc(-c3ccccn3)oc21 (racemic) [Compound 82] : < 1000 nM

IC50 reading for Fc1ccc(-c2nc3c(o2)CCN(c2cnccn2)C3)cc1 [Compound 47] : < 10000 nM

IC50 reading for N#Cc1cccc(N2CCn3cc(-c4ccccn4)nc3C2)c1 [Compound 110] : < 1000 nM
